Would you mind telling me the reported pEC50 of each entry?
molecular target: human GIP receptor (hGIPR) (Homo sapiens); construct: expressed in transfected cells; assay: GIP receptor assay, method A (CRE-luciferase reporter, BHK cells); format: cell-based; conditions: hGIPR Potency, 1% HSA, EC50, method A, in the presence of 1% HSA
Sequence (P48546 22-466): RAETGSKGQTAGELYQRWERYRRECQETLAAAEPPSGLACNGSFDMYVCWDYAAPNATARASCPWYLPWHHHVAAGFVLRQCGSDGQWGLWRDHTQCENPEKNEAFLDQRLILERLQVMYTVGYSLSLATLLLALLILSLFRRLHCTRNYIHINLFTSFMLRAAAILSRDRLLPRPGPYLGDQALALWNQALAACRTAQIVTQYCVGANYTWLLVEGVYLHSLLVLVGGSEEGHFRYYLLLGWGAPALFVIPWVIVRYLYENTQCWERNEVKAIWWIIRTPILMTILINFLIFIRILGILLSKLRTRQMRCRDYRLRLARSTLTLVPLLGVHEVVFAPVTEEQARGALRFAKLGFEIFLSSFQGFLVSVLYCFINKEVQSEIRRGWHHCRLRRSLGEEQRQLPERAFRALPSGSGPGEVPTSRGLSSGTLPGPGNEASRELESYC
Numbered stars: 1 amine (or outer) side, 2 acyl side, 3 side chain; on linkers, the order of the positions; unused ones are H or OH. Square brackets hold non-standard residues; d marks the D form. Side chains are listed from the residue outwards. * marks the point of attachment. C20 diacid = O=C(O)CCCCCCCCCCCCCCCCCCC(=O)*; C18 diacid = O=C(O)CCCCCCCCCCCCCCCCC(=O)*; C16 diacid = O=C(O)CCCCCCCCCCCCCCC(=O)*; γGlu = O=C(O)[C@H](CCC(=O)[*:2])N[*:1]; AEEA = NCCOCCOCC(=O)O; Aib = CC(C)(N)C(=O)O
Conceptually, pEC50 converts a concentration in mol/L into minus its log10.

Query (substance): Y[Aib]EGTFTSDYSILLEEQAAREFIEWLLAGGPSSGAGQAPGQAPLASHLSTAQTARLSAELHK([AEEA-AEEA-γGlu-C18 diacid])LATLPRTETGSGSP-NH2 [Compound 98] ; field requested: pEC50
10.95

Reported pEC50 for H[Aib]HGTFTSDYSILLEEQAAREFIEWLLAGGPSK([AEEA-AEEA-γGlu-C18 diacid])GAGQAPGQAPGASHLSTAQTQRLSAELHELATLPRTETGSGSP-NH2 [Compound 47] : what is it?
9.79

Look at this substance and give its reported pEC50. Y[Aib]EGTFTSDYSILLEEQAAREFIEWLLAGGPSSGAGQAPGQAPGASHLSTAQTQRLSAELHK([AEEA-AEEA-γGlu-C18 diacid])LATLPRTETGSGSP-NH2 [compound 52]
11.17

Param item = Y[Aib]EGTFTSDYSILLEEQAAREFIEWLLAGGPSGGGGEASHLSTAQTQRLSAELHK([AEEA-AEEA-γGlu-C20 diacid])LATLPRTETGSGSP-NH2 [Compound 96] ; retrieve measured pEC50.
10.52

For the substance Y[Aib]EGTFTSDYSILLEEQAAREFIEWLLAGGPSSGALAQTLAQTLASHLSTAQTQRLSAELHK([AEEA-AEEA-γGlu-C18 diacid])LATLPRTETGSGSP-NH2 [Compound 48] , what pEC50 is on record?
10.27

Fill in: pEC50 of Y[Aib]EGTFTSDYSILLEEQAAREFIEWLLAGGPSSGAGQAPGQAPGASHLSTAQTQRLSAELHQLK([AEEA-AEEA-γGlu-C18 diacid])TLPRTETGSGSP-NH2 [Compound 102] is ___
10.91

Dear colleague, I am looking for the recorded pEC50 of the following substance: Y[Aib]EGTFTSDYSILLEEQAAREFIEWLLAGGPSSGAGQAPGQAPGASHLSTAQTARLSAELHK([AEEA-AEEA-γGlu-C18 diacid])LATLPRTETGSGSP-NH2 [Compound 113]
11.05

Given the entry H[Aib]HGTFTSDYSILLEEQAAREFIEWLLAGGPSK([AEEA-AEEA-γGlu-C18 diacid])GAPPPSGGGASELSTAALGRLSAELHRLATLPRTETGSGSP-NH2 [Compound 86] , report its measured pEC50.
9.91

Recorded pEC50 for H[Aib]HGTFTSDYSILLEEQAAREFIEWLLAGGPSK([AEEA-AEEA-γGlu-C18 diacid])GEASQLSTAALGRLSAELHRLADLPRTETGSGSP-NH2 [Compound 43] , please?
9.73

Consider the substance shown here: H[Aib]HGTFTSDYSILLEEQAAREFIEWLLAGGPSSGEASHLSTAQTQRLSAELHRLATLPK([AEEA-AEEA-γGlu-C18 diacid])TETGSGSP-NH2 [Compound 84] What is its recorded pEC50?
10.93

Bench note: what pEC50 did H[Aib]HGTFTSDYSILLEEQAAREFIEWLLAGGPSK([AEEA-AEEA-γGlu-C20 diacid])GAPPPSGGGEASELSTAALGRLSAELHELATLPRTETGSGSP-NH2 [Compound 16] show?
9.31

Requested read-out: pEC50. Entry: H[Aib]HGTFTSDYSILLEEQAAREFIEWLLAGGPSRGEASHLSTAQTQRLSAELHK([AEEA-AEEA-γGlu-C18 diacid])LATLPRTETGSGSP-NH2 [Compound 69]
11.09

Need pEC50, item Y[Aib]EGTFTSDYSILLEEQAAREFIEWLLAGGPSRGEASHLSTAQTQRLSAELHK([AEEA-AEEA-γGlu-C20 diacid])LATLPRTETGSGSP-NH2 [Compound 94]
10.53

What value of pEC50 has been recorded for this entry: Y[Aib]EGTFTSDYSILLEEQAAREFIEWLLAGGPSSGAGQAPGQAPGASHLSTAALARLSAELHK([AEEA-AEEA-γGlu-C18 diacid])LATLPRTETGSGSP-NH2 [Compound 114]
10.76

Could you tell me which pEC50 is on file for H[Aib]HGTFTSDYSILLEEQAAREFIEWLLAGGPSSGAGQAPGQAPGASHLSTAQTQRLSAELHRLATLPK([AEEA-AEEA-γGlu-C18 diacid])TETGSGSP-NH2 [Compound 92] ?
11.07

Any idea what its pEC50 is? The substance is H[Aib]HGTFTSDYSILLEEQAAREFIEWLLAGGPSSGEASHLSTAQTQRLSAELHK([AEEA-AEEA-γGlu-C18 diacid])LATLPRTETGSGAP-NH2 [Compound 85]
10.83

Form field: reported pEC50 of Y[Aib]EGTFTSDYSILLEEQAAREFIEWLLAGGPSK([AEEA-AEEA-γGlu-C16 diacid])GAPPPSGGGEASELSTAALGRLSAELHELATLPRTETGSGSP-NH2 [compound 10]
10.37

Which value of pEC50 has been reported for Y[Aib]EGTFTSDYSILLEEQAAREFIEWLLAGGPSSGEASHLSTAQTQRLSAELHRLK([AEEA-AEEA-γGlu-C18 diacid])TLPRTETGSGSP-NH2 [Compound 80] in the records?
10.69

Fill in: pEC50 of H[Aib]HGTFTSDYSILLEEQAAREFIEWLLAGGPSRGAPPPSGGGEASHLSTQTQGRLSAELHK([AEEA-AEEA-γGlu-C18 diacid])LATLPRTETGSGSP-NH2 [Compound 71] is ___
11.03

Please report the recorded pEC50 for Y[Aib]EGTFTSDYSILLEEQAAREFIEWLLAGGPSSGEASHLSTAQTQRLSAELHK([AEEA-AEEA-γGlu-C18 diacid])LATLPRTETGSGSP-NH2 [Compound 50] .
10.82

May I ask what pEC50 has been recorded for H[Aib]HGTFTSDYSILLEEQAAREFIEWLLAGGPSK([AEEA-AEEA-γGlu-C16 diacid])GAPPPSGGGEASHLSTAQTARLSAELHRLADLPRTETGSGSP-NH2 [Compound 61] ?
10.80

----------
system: Male Sprague Dawley (SD) rats; test: Efficacy testing on appetite: acute food intake in ad libitum fed normal weight rats; assay type: in vivo, rat; settings: single dose 10 nmol/kg, day 2 [24-48 hours]
Numbered stars: 1 amine (or outer) side, 2 acyl side, 3 side chain; on linkers, the order of the positions; unused ones are H or OH. Square brackets hold non-standard residues; d marks the D form. Side chains are listed from the residue outwards. * marks the point of attachment. C20 diacid = O=C(O)CCCCCCCCCCCCCCCCCCC(=O)*; C18 diacid = O=C(O)CCCCCCCCCCCCCCCCC(=O)*; γGlu = O=C(O)[C@H](CCC(=O)[*:2])N[*:1]; AEEA = NCCOCCOCC(=O)O; Aib = CC(C)(N)C(=O)O
I'd be grateful if you could share measured Food intake (relative to vehicle) Day 2 for these entries.
Use % as the unit, but write only the number.

// query Food intake (relative to vehicle) Day 2 value for entry H[Aib]HGTFTSDYSILLEEQAAREFIEWLLAGGPSSGEASHLSTAQTQRLSAK([AEEA-AEEA-γGlu-C18 diacid])LHRLATLPRTETGSGSP-NH2 [Compound 82]
−73

Dear colleague, I am looking for the recorded Food intake (relative to vehicle) Day 2 of the following substance: Y[Aib]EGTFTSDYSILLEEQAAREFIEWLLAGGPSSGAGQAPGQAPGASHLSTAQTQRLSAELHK([AEEA-AEEA-γGlu-C20 diacid])LATLPRTETGSGSP-NH2 [Compound 115]
−76.5

I am curious: what Food intake (relative to vehicle) Day 2 value has been reported for H[Aib]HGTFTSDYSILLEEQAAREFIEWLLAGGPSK([AEEA-AEEA-γGlu-C18 diacid])GEASHLSTAQTARLSAELHELATLPRTETGSGSP-NH2 [Compound 36] ?
−45

Quick check: Food intake (relative to vehicle) Day 2 of H[Aib]HGTFTSDYSILLEEQAAREFIEWLLAGGPSSGEASHLSTAALGRLSAK([AEEA-AEEA-γGlu-C18 diacid])LHRLATLPRTETGSGSP-NH2 [Compound 87] ?
−86

Recorded Food intake (relative to vehicle) Day 2 for H[Aib]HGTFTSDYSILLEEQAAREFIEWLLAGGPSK([AEEA-AEEA-γGlu-C18 diacid])GAPPPSGGGGASELSTAALGRLSAELHRLATLPRTETGSGSP-NH2 [Compound 14] , please?
−85

Given the entry Y[Aib]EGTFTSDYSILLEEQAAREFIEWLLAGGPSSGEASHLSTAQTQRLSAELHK([AEEA-AEEA-γGlu-C18 diacid])LATLPRTETGSGSP-NH2 [Compound 50] , report its measured Food intake (relative to vehicle) Day 2.
−60

Consider the substance H[Aib]HGTFTSDYSILLEEQAAREFIEWLLAGGPSSGAGQAPGQAPLASHLSTAQTQRLSAELHK([AEEA-AEEA-γGlu-C18 diacid])LATLPRTETGSGSP-NH2 [Compound 93] and give its measured Food intake (relative to vehicle) Day 2.
−61

# lookup: Food intake (relative to vehicle) Day 2 of Y[Aib]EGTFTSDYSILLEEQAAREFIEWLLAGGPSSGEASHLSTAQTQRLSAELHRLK([AEEA-AEEA-γGlu-C18 diacid])TLPRTETGSGSP-NH2 [Compound 80]
−78

Could you tell me which Food intake (relative to vehicle) Day 2 is on file for Y[Aib]EGTFTSDYSILLEEQAAREFIEWLLAGGPSSGAPPPSGGGEASHLSTAQTQRLSAK([AEEA-AEEA-γGlu-C20 diacid])LHRLATLPRTETGSGSP-NH2 [Compound 110] ?
−54

Return reported Food intake (relative to vehicle) Day 2; argument: H[Aib]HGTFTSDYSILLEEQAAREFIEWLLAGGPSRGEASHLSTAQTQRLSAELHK([AEEA-AEEA-γGlu-C18 diacid])LATLPRTETGSGSP-NH2 [Compound 69]
−68
